B1: ZNF449 (parent)
chain: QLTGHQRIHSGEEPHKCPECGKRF

- Variants of: B1
- test_description: protein stability index of a GFP-peptide fusion (GPS, HEK-293T) (PSI 1-6); higher = more stable;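 note: lentivirally expressed fusions sorted by FACS into six bins by GFP to DsRed ratio, PSI derived from sequencing read proportions per bin multiplied by bin number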
- experimental_context: c terminus: a fixed tail appended
readout_type: protein stability index
The reply should be a number, written without any unit.

QLTGHQTIHSGEEPHKCPECGKRF = 4.74
QLTGFQRIHSGEEPHKCPECGKRF = 2.94
QLTGHQRIHSHEEPHKCPECGKRF = 4.23

Reported protein stability index for `QLTSHQRIHSGEEPHKCPECGKRF` was 4.57

Value of protein stability index reported for the variant `QLTGHQRIHSREEPHKCPECGKRF` is 4.14

Reported protein stability index for `QLTGHQRIHSGEEPHKCPEDGKRF` was 5.03

These measurements were taken from the supplement of paper PMC10567573.
